experiment: growth inhibition of GSK3B-pretreated HCT116 cells – cell-based, CellTiter-Glo, 0.2 to 20 µM (AID 1117336); conditions: HCT116 viability after GSK3B inhibitor, at 20 µM, stronger effect = higher value
So I've got a bunch of compounds here, and I need their viability decrease values.
Response body: numeric value in %, unit text excluded.

Measured viability decrease of C=CCN1C(=O)C(CC(C)C)NC1=S (stereo not drawn) : -1.7

The reported value for COc1ccccc1OCCNCC(O)COc1cccc2[nH]c3ccccc3c12 (stereo not drawn) in terms of viability decrease is 7.2

Memo: CCCCCCCCCCCCOS(=O)(=O)O , reported viability decrease: -7.5

The value of viability decrease measured for the compound Nc1nc2c(ncn2COCCO)c(=O)[nH]1 turned out to be -0.3

Reported viability decrease of O=c1[nH]c2ccccc2c(=O)n1CCCl : 41.6

// recorded viability decrease for Cc1ccc(-c2cc(C(F)(F)F)nn2-c2ccc(S(N)(=O)=O)cc2)cc1 : -9.9

// field: viability decrease; key: NS(=O)(=O)c1cc(C2(O)NC(=O)c3ccccc32)ccc1Cl (stereo not drawn) ; value = -12.6

The compound listed as O=C1CCCc2c(O)cccc21 shows viability decrease equal to 1

// viability decrease lookup, compound = CCCCCCCCCCCC(=O)OCC(O)CO (stereo not drawn) , result: -3.8

Entry under test: NC(=O)N1c2ccccc2C=Cc2ccccc21 . Its viability decrease was -2.95

Form: compound = C[C@@H](N)C(=O)O ; viability decrease = 9

Short answer for CCOC(=O)c1c(N)sc2c1CCN(Cc1ccccc1)C2 : viability decrease was 21.9

Quick note, viability decrease for O=[N+]([O-])c1nccn1CO[C@@H](CO)[C@H](O)CO landed at 40

----------
test: liver-stage malaria parasite growth inhibition, primary screen, cell-based, HepG2, luciferase luminescence, HepG2 viability (AID 624349);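 note: 100% = mean of DMSO negative control wells on the same plate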; settings: P. berghei liver stage in HepG2, luciferase luminescence, concentration not given here; stronger effect = lower value
endpointName: parasite load remaining (%)
Dear colleague, please return just the value in %, with no unit written.

Looking up O=C1NC(=O)C(c2c[nH]c3ccccc23)=C1c1c[nH]c2ccccc12 , I see its parasite load remaining listed as 50.4

Record C[C@@H]1O[C@@H](OC[C@H]2O[C@@H](Oc3c(-c4ccc(O)c(O)c4)oc4cc(O)cc(O)c4c3=O)[C@H](O)[C@@H](O)[C@@H]2O)[C@H](O)[C@H](O)[C@H]1O . Reported parasite load remaining: 117

Form field parasite load remaining, entry Cc1ccc(O)c([C@H](CCN(C(C)C)C(C)C)c2ccccc2)c1 : 63.7

What the record says about C[C@]12CCC(=O)C=C1CC[C@@H]1[C@@H]2[C@@H](O)C[C@@]2(C)[C@H]1CC[C@]2(O)C(=O)COC(=O)CCC(=O)O : parasite load remaining is 82.9

Looking up Fc1ccc(-c2nc3n(c2-c2ccncc2)CCS3)cc1 , I see its parasite load remaining listed as 45.5

For reference, reported parasite load remaining for Nc1nccc(-c2c(-c3ccc(F)cc3)ncn2C2CCNCC2)n1 stands at 50.2

Item: C=CCCCCCCCCC(=O)O | parasite load remaining: 49.2

According to the records, this compound O[C@@H](c1cc(C(F)(F)F)nc2c(C(F)(F)F)cccc12)[C@H]1CCCCN1 displays parasite load remaining of -2.37

So, CN1C(=O)C(c2c[nH]c3ccccc23)=C(c2c[nH]c3ccccc23)C1=O ? Its parasite load remaining was 34.8
